- methodDescription: Percent mortality in mice after oral administration (750 mg/kg) using acute toxicity assay
- Assay type: organism-based
- experimentalConditions: mouse, in vivo
assayReadout: mortality (%)
Value expressed in %; do not type the unit.

Could you tell me which mortality is on file for COc1ccc2c3c1O[C@H]1[C@@H](O)C=C[C@H]4[C@@H](C2)N(C)CC[C@@]341 ?
40
